All values here come from ChEMBL document CHEMBL1697781.

Provide the reported Composite Activity - Active of each item.
test system: Hepatotoxicity; assay: FDA HLAED, liver enzyme composite activity; settings: human

Value (Composite Activity - Active, Hepatotoxicity) for record CN1CCN(CCCN2c3ccccc3Sc3ccc(C(F)(F)F)cc32)CC1 = 0

Hepatotoxicity Composite Activity - Active of CCCCCCC(=O)O[C@H]1CC[C@H]2[C@@H]3CCC4=CC(=O)CC[C@]4(C)[C@H]3CC[C@]12C [TESTOSTERONE ENANTHATE] is 0

Reading of Composite Activity - Active for COc1ccc([C@@H]2Sc3ccccc3N(CCN(C)C)C(=O)[C@@H]2OC(C)=O)cc1 with Hepatotoxicity: 0

Measured Composite Activity - Active for this entry CC1(C)S[C@@H]2[C@H](NC(=O)C3(N)CCCCC3)C(=O)N2[C@H]1C(=O)O on Hepatotoxicity: 0

So the reported Composite Activity - Active for O=[N+]([O-])O[C@@H]1CO[C@H]2[C@@H]1OC[C@@H]2O [ISOSORBIDE MONONITRATE] , on Hepatotoxicity, turned out to be 0

Observed Composite Activity - Active on Hepatotoxicity, entry COc1ccc(CC2c3cc(OC)c(OC)cc3CC[N+]2(C)CCC(=O)OCCCCCOC(=O)CC[N+]2(C)CCc3cc(OC)c(OC)cc3C2Cc2ccc(OC)c(OC)c2)cc1OC (stereo unspecified) , equals 0

For the compound Cc1ccc(C(=O)Oc2ccc(C(O)CNC(C)(C)C)cc2OC(=O)c2ccc(C)cc2)cc1 (stereo unspecified) , the measured Composite Activity - Active on Hepatotoxicity was 0

Hey, Hepatotoxicity data for NC(=O)OCC(COC(N)=O)c1ccccc1 [FELBAMATE] : Composite Activity - Active came out at 5

Composite Activity - Active on Hepatotoxicity for OCCN1CCN(CCCN2c3ccccc3Sc3ccc(Cl)cc32)CC1 is 0

The measured Composite Activity - Active that Nc1nc(F)nc2c1ncn2[C@@H]1O[C@H](CO)[C@@H](O)[C@@H]1O showed for Hepatotoxicity is 4

Kindly note: Hepatotoxicity, CC1(C)C(C=C(Cl)Cl)C1C(=O)OCc1cccc(Oc2ccccc2)c1 (stereo unspecified) , Composite Activity - Active value reported: 0

Lab note: compound NC1=NC(=O)C(c2ccccc2)O1 (stereo unspecified) tested on Hepatotoxicity; recorded Composite Activity - Active was 4

// assay Hepatotoxicity, entry CCC1=C(C)CN(C(=O)NCCc2ccc(S(=O)(=O)NC(=O)N[C@H]3CC[C@H](C)CC3)cc2)C1=O [GLIMEPIRIDE] , Composite Activity - Active value = 0

Item CCOC(=O)c1ccc(C#Cc2ccc3c(c2)C(C)(C)CCS3)nc1 ; assay system Hepatotoxicity; Composite Activity - Active reported as 0

Composite Activity - Active value, target or system Hepatotoxicity, for CC[C@H]1OC(=O)[C@H](C)[C@@H](O[C@H]2C[C@@](C)(OC)[C@@H](O)[C@H](C)O2)[C@H](C)[C@@H](O[C@@H]2O[C@H](C)C[C@H](N(C)C)[C@H]2O)[C@](C)(O)C[C@@H](C)C(=O)[C@H](C)[C@@H](O)[C@]1(C)O : 3

Let me check: CC(CN(C)C)CN1c2ccccc2CCc2ccccc21 (stereo unspecified) , system Hepatotoxicity, measured Composite Activity - Active is 0
